test system: DLD-1; test: NCI tumour cell line growth inhibition, 48 h
The source made the active and inactive calls. Rule as the data show it: active = GI50 up to about 1.1 µM and inactive = higher.
Could you please pick one outcome from this set? active, inactive

C[C@@H]1C[C@@H]([C@H](O)CC2CC(=O)NC(=O)C2)C(=O)[C@@H](C)C1 [CYCLOHEXIMIDE] ... active
Cc1c2ccnc(O)c2cc2c(=O)c3cnccc3[nH]c12 ... inactive
C=C(C)C1Cc2c(cc(O)c3c(=O)c4ccccc4n(C)c23)O1 (configuration not stated) ... inactive

Q: // param item: COc1ccc2c(c1)OC(c1ccccc1O)CC2=O (configuration not stated) ; yields the recorded call
Result: inactive

Q: // param item: "COc1cc(C=O)c(-c2cc3c(cc2C=O)OCO3)c(OC)c1OC" ; yields the recorded call
Result: inactive

====

test system: UACC-62; test: NCI tumour cell line growth inhibition, 48 h
Activity calls are given as the source filed them. No stated cut-off is given here; in the data, active = GI50 up to about 1.1 µM and inactive = higher.
quantity.measured: GI50

COc1cc(C2c3cc4c(cc3[C@@H](Nc3cccc(CO)c3)C3COC(=O)[C@H]23)OCO4)cc(OC)c1O (stereo partly specified) ... 0.307 µM (active)
C1CN(C23OC4(N5CCOCC5)C5C6CC(C7C6C4C72)C53)CCO1 (stereo unspecified) ... > 100 µM (inactive)
COc1ccc2[nH]c3c(c2c1)CC(=O)N1CCC[C@H](C1)CC31OCCCO1 ... 77.1 µM (inactive)
S=C(NN=C1NCCCN1)Nc1ccccc1 ... > 100 µM (inactive)
COc1ccc(/C=N\N2CC(=O)N3C4C=CC(CC4)N3C2=O)cc1 (stereo unspecified) ... 74.8 µM (inactive)
CCOC(=O)C1C(=O)CC1(C)C (stereo unspecified) ... > 10 µM (inactive)
CCC1c2[nH]c3ccccc3c2C[C@H]2C(=O)N3CCC[C@H]3C(=O)N12 (stereo partly specified) ... 70.6 µM (inactive)
OC1(c2ccc(Cl)cc2)c2ccccc2-c2nc3ccccc3n21 (stereo unspecified) ... > 100 µM (inactive)

Q: What value of measured GI50 is listed for "CCOC(=O)c1[nH]c(Br)c(-c2ccc(Br)cc2)c1Br" ?
Result: 0.234 µM (active)

Q: What value of measured GI50 is listed for "O=Cc1coc2ccccc2c1=O" ?
Result: 19.9 µM (inactive)

Q: What value of measured GI50 is listed for "C/C(CN1C(=O)c2ccccc2C1=O)=N\NS(=O)(=O)c1cccc([N+](=O)[O-])c1" ?
Result: > 100 µM (inactive)

Q: What value of measured GI50 is listed for "CC(C)(C)OC(=O)N/C=C1\C(=O)Oc2ccccc2C1=O" ?
Result: 38.4 µM (inactive)

Q: What value of measured GI50 is listed for "O=c1cccc(Cl)[nH]1" ?
Result: > 100 µM (inactive)

====

system: OVCAR-4; assay: NCI tumour cell line growth inhibition, 48 h
The source made the active and inactive calls. Rule as the data show it: active = GI50 up to about 1.1 µM and inactive = higher.
quantity.measured: GI50

C=CCOC(=O)[C@@H]1C[C@@H](OC(C)(C)C)CN1C(=O)[C@@H]1[C@H]2OC(C)(C)O[C@H]2CN1C(=O)OCC1c2ccccc2-c2ccccc21 ... 17.2 µM (inactive)
CC1(C)C2CCC1C(=O)[C@@]1(C=CC(=O)CC1)C2 (some centres undefined) ... > 100 µM (inactive)
C[C@H]1C(OCCOC2O[C@@H]3O[C@@]4(C)CC[C@H]5[C@H](C)CCC([C@H]2C)[C@@]35O4)O[C@@H]2O[C@@]3(C)CC[C@H]4[C@H](C)CCC1[C@@]24O3 (some centres undefined) ... 80.5 µM (inactive)
O=c1oc2ccc([N+](=O)[O-])cc2c(Nc2ccc3c(c2)S(=O)(=O)c2ccccc2O3)c1[N+](=O)[O-] ... > 100 µM (inactive)
CC(NC(=O)C(N)CC(=O)O)NC(=O)N1CCCC1 (centres undefined) ... > 100 µM (inactive)

Q: Give OVCAR-4 GI50 for "Cc1cc2nc(-c3c(F)cccc3F)n(Cc3c(F)cccc3F)c2cc1C"
Result: 15 µM (inactive)

Q: Give OVCAR-4 GI50 for "N#C[C@@H](c1ccccn1)c1ncccc1[N+](=O)[O-]"
Result: > 100 µM (inactive)

Q: Give OVCAR-4 GI50 for "O=c1[nH]/c(=C/c2ccc(OCc3ccccc3)cn2)c(=O)[nH]/c1=C/c1cccnc1"
Result: 1.25 µM (inactive)

Q: Give OVCAR-4 GI50 for "N#Cc1nsnc1-c1nc(-c2nsnc2C#N)nc(-c2nsnc2C#N)n1"
Result: > 100 µM (inactive)

====

tested on: UACC-257; test: NCI tumour cell line growth inhibition, 48 h
The source made the active and inactive calls. Rule as the data show it: active = GI50 up to about 1.1 µM and inactive = higher.
Quick list: GI50 per entry.

N/N=C(\C(=O)Nc1ccc([N+](=O)[O-])cc1)C(C1=Nc2cc([N+](=O)[O-])ccc2NC1)[N+](=O)[O-] (stereo not given) ... > 100 µM (inactive)

Q: What value of measured GI50 is listed for "CCOC(=O)c1cn(Cc2ccccc2)c(=O)n1Cc1ccccc1" ?
Result: > 100 µM (inactive)

Q: What value of measured GI50 is listed for NCC1Nc2ccccc2[C@@H](O)C1O (stereo not given in full) ?
Result: > 100 µM (inactive)

Q: What value of measured GI50 is listed for CN1CC2=C(N=C(S)NC2c2ccccc2Cl)/C(=C/c2ccccc2Cl)C1 (stereo not given) ?
Result: 55.8 µM (inactive)

Q: What value of measured GI50 is listed for O=C1CCC(N2C(=O)c3ccccc3C2=O)C(=O)N1 (stereo not given) [THALIDOMIDE] ?
Result: > 100 µM (inactive)

Q: What value of measured GI50 is listed for CCOC(=O)C1=C(C)N(c2ccc(C)cc2)C2=C(C(=O)N(c3ccccc3)C2c2ccccc2)C1c1ccccc1 (stereo not given) ?
Result: > 25 µM (inactive)

====

tested on: IGROV-1; assay: NCI tumour cell line growth inhibition, 48 h
Active and inactive are the calls of the source. Rule as the data show it: active = GI50 up to about 1.1 µM and inactive = higher.
Could you please pick one outcome from this set? YES (active), NO (inactive)

Example entries begin here.
O=C(O)CCCc1ccc2c(c1)CC1(C2)Cc2ccc(CCCC(=O)O)cc2C1 ... NO
Cc1nn(C(=O)c2ccncc2)c2c1C(c1cccc([N+](=O)[O-])c1)SC(=N)N2 (centres undefined) ... NO
O=C1O[C@H](c2ccccc2)[C@@H]2CC3(CCN12)OCCO3 ... NO
O=S(=O)(O)CCS [MESNA] ... NO

Q: // param item: CC1(C)CC[C@]2(C(=O)O)CC[C@]3(C)C(=CC[C@@H]4[C@@]5(C)CC[C@H](OC6OC(C(=O)O)C(O)C(O)C6O)C(C)(C)[C@@H]5CC[C@]43C)[C@@H]2C1 (some centres undefined) ; yields the recorded call
Result: NO

Q: // param item: NCC1Nc2ccccc2[C@@H](O)C1O (some centres undefined) ; yields the recorded call
Result: NO

Q: // param item: "O=c1c2ccccc2[nH]c2c(Cl)cc(Cl)c(NC3CCCCC3)c12" ; yields the recorded call
Result: NO

Q: // param item: COc1cc([C@@H]2c3cc4c(cc3[C@@H](NC(=O)c3ccc(OC(C)=O)cc3)C3COC(=O)[C@@H]32)OCO4)cc(OC)c1O (some centres undefined) ; yields the recorded call
Result: YES

Q: // param item: Cc1ccc(O)c(C2=CC3=NNC(=O)C3C(c3cccc(Cl)c3)C2)c1 (centres undefined) ; yields the recorded call
Result: NO

====

Quick list: GI50 per entry.
system: HCT-116; assay: NCI tumour cell line growth inhibition, 48 h
The source made the active and inactive calls. Rule as the data show it: active = GI50 up to about 1.1 µM and inactive = higher. Where a SMILES comes first, the peptide text is derived from it. [ ]: non-standard residue; d: D form. The star is where a group is joined. Phe(4-NO2) = N[CH](Cc1ccc([N+](=O)[O-])cc1)C(=O)O; Boc = CC(C)(C)OC(=O)*

S=C(NC/C(Br)=C/Br)Nc1cccc2ccccc12 ... 24.2 µM (inactive)
CCOC(=O)CCC(NC(=O)C(Cc1ccc([N+](=O)[O-])cc1)NC(=O)OC(C)(C)C)C(=O)NC(CCC(=O)OCC)C(=O)OCC (centres undefined) (Boc-[Phe(4-NO2)]-Glu(OEt)-Glu(OEt)-OEt; configuration not given here) ... 18.3 µM (inactive)
CC(C)(Cl)C(Br)CC/C(=C/CCl)CBr.CC(C)(Cl)C(Br)CC/C(=C\CCl)CBr (centres undefined) ... 1.77 µM (inactive)

Q: Give HCT-116 GI50 for "Cc1n[nH]c(=O)n1/N=C/c1ccncc1"
Result: > 100 µM (inactive)

Q: Give HCT-116 GI50 for "Oc1[nH]c(NCc2ccc(Cl)cc2)nc2ncnc1-2"
Result: > 100 µM (inactive)

====

tested on: CAKI-1; assay: NCI tumour cell line growth inhibition, 48 h
Calls of active or inactive are those of the source. No stated cut-off is given here; in the data, active = GI50 up to about 1.1 µM and inactive = higher.
quantity.measured: GI50

Q: What value of measured GI50 is listed for "N=C(N)NS(=O)(=O)c1ccc(NNc2c3ccccc3nc3ccccc23)cc1" ?
Result: 15.8 µM (inactive)

Q: What value of measured GI50 is listed for O=C(Cc1ccccc1)N/N=C(/c1nc2ccc([N+](=O)[O-])cc2nc1O)C(O)c1ccccc1Cl (centres undefined) ?
Result: 46.6 µM (inactive)

Q: What value of measured GI50 is listed for "Cc1cccc(Nc2cn(CCOc3ccccc3)c(=O)n(CCOc3ccccc3)c2=O)c1" ?
Result: > 100 µM (inactive)

Q: What value of measured GI50 is listed for CCOc1ccc(C2Oc3c(cccc3OC)C=C2[N+](=O)[O-])cc1OCC (centres undefined) ?
Result: 2.94 µM (inactive)

Q: What value of measured GI50 is listed for "N#Cc1nsnc1-c1nc(-c2nsnc2C#N)nc(-c2nsnc2C#N)n1" ?
Result: > 100 µM (inactive)
